- test target: T1, Cyno CD33 ECD-HSA (cynomolgus monkey)
- T1 construct: Cyno CD33 extracellular domain fused to monomeric human serum albumin and a six-histidine tag; also called C33W1
- test method notes: ProteOn SPR, mAb captured by anti-human Fc, 1:1 Langmuir fit
- Experimental: The panel of mAbs was then further characterized for full affinity analysis as well as epitope binning. The binding of anti-CD33 mAbs to recombinant human CD33 ECD-HSA (C33W2) and cyno CD33 ECD-HSA (C33W1) was measured by ProteOn SPR (Bio-Rad). […] Different mAbs were captured on the anti-human Fc IgG surface at 0.25 or 0.5 μg/ml (160-300 RU) in vertical ligand orientation, with the 6th ligand channel as no ligand surface control. […]
Use true when the recorded koff is no lower than 0.0003 s⁻¹; use false when it is lower.

binder	qualitative label
C33B48 (antibody, IgG1, V domains shown, huIgG1 F405L; also called C33F53; C33H80/C33L73) VH: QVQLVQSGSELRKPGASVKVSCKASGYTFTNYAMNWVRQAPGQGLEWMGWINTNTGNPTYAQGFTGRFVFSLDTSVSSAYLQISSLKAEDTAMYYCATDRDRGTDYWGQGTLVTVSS VL: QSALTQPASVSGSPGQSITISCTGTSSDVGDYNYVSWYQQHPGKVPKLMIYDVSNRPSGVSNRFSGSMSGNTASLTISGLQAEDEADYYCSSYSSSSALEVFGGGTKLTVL	false
C33B89 (antibody, IgG1, V domains shown, huIgG1 F405L; also called C33F94; C33H90/C33L51) VH: QVQLQQSGPGLVKPSQTLSLTCAISGDSVSSNSAAWNWIRQSPSRGLEWLGRTYYRSKWYNDYALSVQSRITINPDTSKNQFSLQLNSVTPEDTAVYYCAREVAVAASFDYWGQGTLVTVSS VL: SYVLTQPPSVSVAPGQTARITCGGNNIGSKSVHWSQQKPGQAPVLVVYDDSDRPSGIPERFSGSNSGNTATLTISRVEAGDEADYYCQVWDSNSDHVVFGGGTKLTVL	false
C33B79 (antibody, IgG1, V domains shown, huIgG1 F405L; also called C33F84; C33H74/C33L38) VH: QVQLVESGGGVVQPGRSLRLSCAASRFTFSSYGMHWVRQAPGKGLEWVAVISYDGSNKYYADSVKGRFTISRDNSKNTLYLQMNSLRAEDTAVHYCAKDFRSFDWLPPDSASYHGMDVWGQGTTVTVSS VL: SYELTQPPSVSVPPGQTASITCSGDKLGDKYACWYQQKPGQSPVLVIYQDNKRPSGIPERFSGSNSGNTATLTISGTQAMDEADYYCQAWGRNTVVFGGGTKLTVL	true
C33B52 (antibody, IgG1, V domains shown, huIgG1 F405L; also called C33F57; C33H42/C33L8) VH: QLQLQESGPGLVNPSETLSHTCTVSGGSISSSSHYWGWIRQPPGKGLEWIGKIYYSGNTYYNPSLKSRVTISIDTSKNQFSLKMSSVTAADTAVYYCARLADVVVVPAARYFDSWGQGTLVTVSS VL: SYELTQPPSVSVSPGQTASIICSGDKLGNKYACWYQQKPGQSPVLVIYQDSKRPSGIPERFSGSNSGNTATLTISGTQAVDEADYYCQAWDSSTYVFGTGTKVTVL	true
C33B72 (antibody, IgG1, V domains shown, huIgG1 F405L; also called C33F77; C33H65/C33L47) VH: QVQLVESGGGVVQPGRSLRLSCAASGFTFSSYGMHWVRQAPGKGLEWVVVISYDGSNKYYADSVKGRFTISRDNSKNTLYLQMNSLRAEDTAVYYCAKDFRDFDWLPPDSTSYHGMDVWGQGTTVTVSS VL: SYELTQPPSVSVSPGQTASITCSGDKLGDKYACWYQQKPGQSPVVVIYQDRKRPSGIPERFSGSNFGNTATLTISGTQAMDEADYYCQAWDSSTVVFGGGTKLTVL	true
C33B101 (antibody, V domains shown, huIgG1 F405L; 260 is used; also called C33F106; C33H69/C4LL152) VH: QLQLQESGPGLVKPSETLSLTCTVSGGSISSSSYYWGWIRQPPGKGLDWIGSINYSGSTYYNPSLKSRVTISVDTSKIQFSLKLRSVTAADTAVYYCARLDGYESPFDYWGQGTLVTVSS VL: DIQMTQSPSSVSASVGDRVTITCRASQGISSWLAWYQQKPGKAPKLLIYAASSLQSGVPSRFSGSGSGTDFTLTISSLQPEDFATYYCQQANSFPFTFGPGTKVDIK	false
